# target-of-assay: KRas G12C (Homo sapiens, UniProt P01116, G12C)
# Sequence (P01116 1-188 isoform P01116-2 G12C): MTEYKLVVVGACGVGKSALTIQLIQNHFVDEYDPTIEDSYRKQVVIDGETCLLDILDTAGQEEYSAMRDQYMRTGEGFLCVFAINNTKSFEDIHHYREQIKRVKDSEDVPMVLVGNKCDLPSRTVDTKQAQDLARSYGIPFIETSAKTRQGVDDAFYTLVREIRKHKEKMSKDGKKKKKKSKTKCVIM
# method: Cellular inhibition of KRas G12C measured by Phospho-ERK in NCI-H358 cells
# Format: cell-based
# reported-conditions: pERK(Thr202/Tyr204) normalized with GAPDH, NCI-H358 cells, 3 hours; read-out: IC50
pIC50: −log10 of the molar value.
Readings of pIC50 for the listed compounds

Example cases with answers are listed next.
C=CC(=O)N1CCN(c2nc(O[C@@H](C)[C@@H]3CCCN3C)nc3c2CCN(c2cc(O)cc4ccccc24)C3)CC1 | 6.00 to 10.00
C=CC(=O)N1CCN(c2nc(OC[C@@H]3CCCN3C)nc3c2CCN(c2cccc(Cl)c2C(F)(F)F)C3)CC1CC#N (stereo partly drawn) [Example 414] | 6.00 to 10.00
C=CC(=O)N1CCN(c2nc(OCC3CCN(C)C3)nc3c2CCN(c2cc(O)cc4ccccc24)C3)CC1 (stereo not drawn) | 6.00 to 10.00
C=CC(=O)N1CCN(c2nc(OC[C@@H]3CCCN3CC)nc3c2CCN(c2ccc(F)c4ccccc24)C3)CC1CC#N (stereo partly drawn) | 6.00 to 10.00

Request: Query the reported pIC50 for KRas G12C (Homo sapiens, UniProt P01116, G12C); item: C=CC(=O)N1CCN(c2nc(OCCCN3CCOCC3)nc3c2CCN(c2cc(O)ccc2SC(F)(F)F)C3)CC1
Response: < 6.00

Request: And then C=CC(=O)N1CCN(c2nc(OC[C@@H]3CCCN3C)nc3c2CCN(c2cc(O)cc4ccccc24)C3)CC1CC#N (stereo partly drawn) , what is it?
Response: 6.00 to 10.00

Request: And then C=CC(=O)N1CCN(c2nc(OC[C@@H]3CCCN3C)nc3c2CCN(c2cccc(F)c2C(F)(F)F)C3)C[C@@H]1CC#N , what is it?
Response: 6.00 to 10.00

Request: And then C#CC[C@H]1CN(c2nc(OC[C@@H]3CCCN3C)nc3c2CCN(c2cccc4ccccc24)C3)CCN1C(=O)C=C , what is it?
Response: 6.00 to 10.00

Request: And then C=CC(=O)N1CCN(c2nc(OC[C@@H]3CCCN3C)nc3c2CCN(c2c(C)ccc(F)c2C)C3)C[C@@H]1CC#N , what is it?
Response: 6.00 to 10.00

Request: And then C=C(OC)C(=O)N1CCN(c2nc(OC[C@@H]3CCCN3C)nc3c2CCN(c2cccc4cccc(C)c24)C3)C[C@@H]1CC#N , what is it?
Response: < 6.00

Request: And then C=CC(=O)N1CCN(c2nc(OCCN3CCCC[C@H]3C)nc3c2CCN(c2cc(O)cc4ccccc24)C3)CC1 , what is it?
Response: 6.00 to 10.00

Request: And then C=C(F)C(=O)N1CCN(c2nc(OC[C@@H]3[C@H](O)CC(=O)N3C)nc3c2CCN(c2cccc4cccc(C)c24)C3)C[C@@H]1CC#N , what is it?
Response: < 6.00

Request: And then C=CC(=O)N1CCN(c2nc(OC[C@@H]3CCCN3CC)nc3c2CCN(c2cccc4ccccc24)C3)C[C@@H]1CC#N , what is it?
Response: 6.00 to 10.00
